# SUBJECT OF TEST: Disintegrin and metalloproteinase domain-containing protein 10 (Homo sapiens)
# Sequence (O14672 whole entry): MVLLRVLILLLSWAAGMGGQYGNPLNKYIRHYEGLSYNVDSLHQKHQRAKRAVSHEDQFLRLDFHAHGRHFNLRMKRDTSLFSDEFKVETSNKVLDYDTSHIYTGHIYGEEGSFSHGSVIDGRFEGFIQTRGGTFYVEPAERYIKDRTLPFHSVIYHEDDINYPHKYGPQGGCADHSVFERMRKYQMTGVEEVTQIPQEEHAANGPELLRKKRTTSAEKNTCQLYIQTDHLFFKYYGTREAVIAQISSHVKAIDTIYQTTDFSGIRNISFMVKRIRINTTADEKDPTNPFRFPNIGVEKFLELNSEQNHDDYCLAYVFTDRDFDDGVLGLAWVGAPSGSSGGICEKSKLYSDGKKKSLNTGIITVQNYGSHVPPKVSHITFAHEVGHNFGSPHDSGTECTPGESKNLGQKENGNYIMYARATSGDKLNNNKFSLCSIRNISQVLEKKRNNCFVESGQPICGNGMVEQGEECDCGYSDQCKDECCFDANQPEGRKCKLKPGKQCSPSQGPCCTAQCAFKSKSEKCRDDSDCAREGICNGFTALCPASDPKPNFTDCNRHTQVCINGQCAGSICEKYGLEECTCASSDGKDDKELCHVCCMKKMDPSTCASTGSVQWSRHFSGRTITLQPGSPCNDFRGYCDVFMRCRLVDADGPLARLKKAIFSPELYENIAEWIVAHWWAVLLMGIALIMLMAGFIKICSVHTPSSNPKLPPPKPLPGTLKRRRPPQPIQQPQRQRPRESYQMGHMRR
MEASURED METRIC: Ki (nM)

a. C[C@@H](NC(=O)[C@H](O)[C@@H](O)C(=O)N1CCC[C@@H]1c1csc(NC2CC2)n1)c1ccc(-n2cccn2)cc1
b. CNc1nc([C@H]2c3ccccc3CN2C(=O)[C@H](O)[C@@H](O)C(=O)N[C@H](C)c2ccc(-n3cccn3)cc2)cs1
Which numeric Ki is bigger, that of a or that of b ? To answer, give the label that identifies your chosen option.
a

* * *

# TEST METHOD NOTES: Plasma concentration in Sprague-Dawley rat at 10 mg/kg, po measured after 6 hrs by LC/MS/MS analysis
# Assay type: ADME, organism-based
# Parameters: dose 10 mg/kg, route oral
MEASURED METRIC: concentration at 6 h (µM)

Known concentration at 6 h results, listed for orientation:
SMILES CODE	ASSAY VALUE
C[C@@H](NC(=O)[C@H](O)[C@@H](O)C(=O)N1CCC[C@@H]1c1csc(N)n1)c1ccc(-n2cccn2)cc1	0.247
C[C@@H](NC(=O)[C@H](O)[C@@H](O)C(=O)N1CCC[C@@H]1c1csc(NC2CC2)n1)c1ccc(-n2cccn2)cc1	17.6
CCCNc1nc([C@H]2CCCN2C(=O)[C@H](O)[C@@H](O)C(=O)N[C@H](C)c2ccc(-n3cccn3)cc2)cs1	5.4

I. CNc1nc([C@H]2CCCN2C(=O)[C@H](O)[C@@H](O)C(=O)N[C@H](C)c2ccc(-n3cccn3)cc2)cs1
II. C[C@@H](NC(=O)[C@H](O)[C@@H](O)C(=O)N1CCC[C@@H]1c1cccc(Cl)c1)c1ccc(-n2cccn2)cc1
III. CCNc1nc([C@H]2CCCN2C(=O)[C@H](O)[C@@H](O)C(=O)N[C@H](C)c2ccc(-n3cccn3)cc2)cs1
IV. CC(C)Nc1nc([C@H]2CCCN2C(=O)[C@H](O)[C@@H](O)C(=O)N[C@H](C)c2ccc(-n3cccn3)cc2)cs1
Sort low-to-high on concentration at 6 h, please. # the answer lists labels in the order requested
II, I, III, IV
(II: 0.096 µM, I: 2.54 µM, III: 5.97 µM, IV: 12.3 µM)

1. C[C@@H](NC(=O)[C@H](O)[C@@H](O)C(=O)N1CCC[C@@H]1c1ccn(C)n1)c1ccc(-n2cccn2)cc1
2. C[C@@H](NC(=O)[C@H](O)[C@@H](O)C(=O)N1CCC[C@@H]1c1csc(NC2CCC2)n1)c1ccc(-n2cccn2)cc1
Given the listed records, identify the one among 1 and 2 with higher concentration at 6 h. Field: selected label. Fill in the label of the entry you choose.
2

* * *

# SUBJECT OF TEST: Disintegrin and metalloproteinase domain-containing protein 17 (Homo sapiens, UniProt P78536)
# Sequence (P78536 whole entry, the tested form may be a part): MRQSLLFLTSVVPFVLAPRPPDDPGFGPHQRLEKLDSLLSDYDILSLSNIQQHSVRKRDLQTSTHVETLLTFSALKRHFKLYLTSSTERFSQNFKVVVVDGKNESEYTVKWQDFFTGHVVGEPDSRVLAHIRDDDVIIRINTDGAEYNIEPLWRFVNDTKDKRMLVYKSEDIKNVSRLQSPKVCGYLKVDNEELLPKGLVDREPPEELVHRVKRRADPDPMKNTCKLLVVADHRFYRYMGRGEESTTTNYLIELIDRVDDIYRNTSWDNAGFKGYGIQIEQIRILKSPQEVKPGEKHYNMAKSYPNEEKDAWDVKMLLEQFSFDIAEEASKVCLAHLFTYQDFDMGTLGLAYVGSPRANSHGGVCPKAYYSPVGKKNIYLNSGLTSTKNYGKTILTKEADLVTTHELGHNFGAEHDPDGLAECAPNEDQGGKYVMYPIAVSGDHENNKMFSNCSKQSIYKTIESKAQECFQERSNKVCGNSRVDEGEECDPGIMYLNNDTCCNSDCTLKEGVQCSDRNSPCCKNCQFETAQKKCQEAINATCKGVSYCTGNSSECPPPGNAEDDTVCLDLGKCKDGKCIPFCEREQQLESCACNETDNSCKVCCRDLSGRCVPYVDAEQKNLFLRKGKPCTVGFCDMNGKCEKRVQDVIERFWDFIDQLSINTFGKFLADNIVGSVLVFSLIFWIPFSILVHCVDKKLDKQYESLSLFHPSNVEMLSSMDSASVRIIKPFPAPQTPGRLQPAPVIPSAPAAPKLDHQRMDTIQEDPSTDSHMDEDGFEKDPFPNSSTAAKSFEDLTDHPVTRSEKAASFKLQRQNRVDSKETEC
# TEST METHOD NOTES: Inhibition of TACE by cell based assay
pIC50: −log10 of the molar value.
MEASURED METRIC: pIC50

Here's what some known entries look like.
MOLECULE	pIC50
CNc1nc(C2(C)CCCN2C(=O)[C@H](O)[C@@H](O)C(=O)N[C@H](C)c2ccc(-n3cccn3)cc2)cs1 (mixture of isomers)	4.86
CNc1nc([C@H]2CCCN2C(=O)[C@H](O)[C@@H](O)C(=O)N[C@H](C)c2ccc(-n3cccn3)cc2)c(-c2ccc(F)cc2)s1	5.49

a. CCCNc1nc([C@H]2CCCN2C(=O)[C@H](O)[C@@H](O)C(=O)N[C@H](C)c2ccc(-n3cccn3)cc2)cs1
b. CNc1nc([C@H]2CCCN2C(=O)[C@H](O)[C@@H](O)C(=O)N[C@H](C)c2ccc(-n3cccn3)cc2)c(C)s1
Between the entries labeled a and b , whose measured pIC50 is lower? In your reply, give the label of the chosen option.
a

* * *

# SUBJECT OF TEST: Disintegrin and metalloproteinase domain-containing protein 17 (Homo sapiens)
pKi: −log10 of the molar value.
MEASURED METRIC: pKi

Take a look at these entries with their results.
MOLECULE	pKi
CNc1nc([C@H]2CCCN2C(=O)[C@H](O)[C@@H](O)C(=O)N[C@H](C)c2ccc(-n3cccn3)cc2)c(C)s1	8.70
CNc1nc([C@H]2CCCN2C(=O)[C@H](O)[C@@H](O)C(=O)N[C@H](C)c2ccc(-n3cccn3)cc2)c(-c2ccc(F)cc2)s1	9.00
C[C@@H](NC(=O)[C@H](O)[C@@H](O)C(=O)N1CCCCC1c1ccc(Cl)cc1)c1ccc(-n2cccn2)cc1 (mixture of isomers)	7.66
C[C@@H](NC(=O)[C@H](O)[C@@H](O)C(=O)N1CCC[C@@H]1c1cccc(Cl)c1)c1ccc(-n2cccn2)cc1	9.10
C[C@@H](NC(=O)[C@H](O)[C@@H](O)C(=O)N1CCC[C@@H]1c1csc(NC2CCC2)n1)c1ccc(-n2cccn2)cc1	8.40

a. COc1cc2c(cc1OC)[C@H](c1ccc(Cl)cc1)N(C(=O)[C@H](O)[C@@H](O)C(=O)N[C@H](C)c1ccc(-n3cccn3)cc1)CC2
b. C[C@@H](NC(=O)[C@H](O)[C@@H](O)C(=O)N1C[C@H](O)CC1c1cccc(Cl)c1)c1ccc(-n2cccn2)cc1 (mixture of isomers)
From the recorded data, which exceeds the other in pKi: a or b ? Selection: enter the item's label.
a
(a: 8.59, b: 8.12)

P. C[C@@H](NC(=O)[C@H](O)[C@@H](O)C(=O)N1CCC[C@@H]1c1csc(NC2CC2)n1)c1ccc(-n2cccn2)cc1
Q. CNc1nc([C@H]2C[C@@H]3C[C@@H]3N2C(=O)[C@H](O)[C@@H](O)C(=O)N[C@H](C)c2ccc(-n3cccn3)cc2)cs1
Which has the smaller recorded pKi, P or Q ? Please respond with the label that marks your chosen entry.
Q
(Q: 6.27, P: 8.30)

* * *

# SUBJECT OF TEST: Collagenase 3 (Homo sapiens, UniProt P45452)
MEASURED METRIC: pKi
As a rule, pKi stands for the negative log10 of the concentration, concentration in M.

Lab note: need pKi for CNc1nc([C@H]2c3ccccc3CN2C(=O)[C@H](O)[C@@H](O)C(=O)N[C@H](C)c2ccc(-n3cccn3)cc2)cs1 on Collagenase 3 (Homo sapiens, UniProt P45452), anyone have it?
4.85

* * *

# SUBJECT OF TEST: Disintegrin and metalloproteinase domain-containing protein 17 (Homo sapiens, UniProt P78536)
MEASURED METRIC: IC50 (nM)

Recorded results for 2 compounds are shown here.
SMILES CODE	IC50 (nM)
C[C@@H](NC(=O)[C@H](O)[C@@H](O)C(=O)N1CCC[C@@H]1c1csc(Nc2cccnc2)n1)c1ccc(-n2cccn2)cc1	5550
CNc1nc([C@H]2CCCN2C(=O)[C@H](O)[C@@H](O)C(=O)N[C@H](C)c2ccc(-n3cccn3)cc2)c(C2CC2)s1	2570

P. C[C@@H](NC(=O)[C@H](O)[C@@H](O)C(=O)N1CCC[C@@H]1c1csc(NC2CCC2)n1)c1ccc(-n2cccn2)cc1
Q. C[C@@H](NC(=O)[C@H](O)[C@@H](O)C(=O)N1CCC[C@@H]1c1csc(Nc2ccccc2F)n1)c1ccc(-n2cccn2)cc1
Hey, between P and Q which has a smaller measured IC50? When you have decided, please share the label of that item.
Q
(Q: 1140 nM, P: 2150 nM)
